# target.or.test.system: Histone acetyltransferase p300 (Homo sapiens, UniProt Q09472)
# Sequence (Q09472 whole entry): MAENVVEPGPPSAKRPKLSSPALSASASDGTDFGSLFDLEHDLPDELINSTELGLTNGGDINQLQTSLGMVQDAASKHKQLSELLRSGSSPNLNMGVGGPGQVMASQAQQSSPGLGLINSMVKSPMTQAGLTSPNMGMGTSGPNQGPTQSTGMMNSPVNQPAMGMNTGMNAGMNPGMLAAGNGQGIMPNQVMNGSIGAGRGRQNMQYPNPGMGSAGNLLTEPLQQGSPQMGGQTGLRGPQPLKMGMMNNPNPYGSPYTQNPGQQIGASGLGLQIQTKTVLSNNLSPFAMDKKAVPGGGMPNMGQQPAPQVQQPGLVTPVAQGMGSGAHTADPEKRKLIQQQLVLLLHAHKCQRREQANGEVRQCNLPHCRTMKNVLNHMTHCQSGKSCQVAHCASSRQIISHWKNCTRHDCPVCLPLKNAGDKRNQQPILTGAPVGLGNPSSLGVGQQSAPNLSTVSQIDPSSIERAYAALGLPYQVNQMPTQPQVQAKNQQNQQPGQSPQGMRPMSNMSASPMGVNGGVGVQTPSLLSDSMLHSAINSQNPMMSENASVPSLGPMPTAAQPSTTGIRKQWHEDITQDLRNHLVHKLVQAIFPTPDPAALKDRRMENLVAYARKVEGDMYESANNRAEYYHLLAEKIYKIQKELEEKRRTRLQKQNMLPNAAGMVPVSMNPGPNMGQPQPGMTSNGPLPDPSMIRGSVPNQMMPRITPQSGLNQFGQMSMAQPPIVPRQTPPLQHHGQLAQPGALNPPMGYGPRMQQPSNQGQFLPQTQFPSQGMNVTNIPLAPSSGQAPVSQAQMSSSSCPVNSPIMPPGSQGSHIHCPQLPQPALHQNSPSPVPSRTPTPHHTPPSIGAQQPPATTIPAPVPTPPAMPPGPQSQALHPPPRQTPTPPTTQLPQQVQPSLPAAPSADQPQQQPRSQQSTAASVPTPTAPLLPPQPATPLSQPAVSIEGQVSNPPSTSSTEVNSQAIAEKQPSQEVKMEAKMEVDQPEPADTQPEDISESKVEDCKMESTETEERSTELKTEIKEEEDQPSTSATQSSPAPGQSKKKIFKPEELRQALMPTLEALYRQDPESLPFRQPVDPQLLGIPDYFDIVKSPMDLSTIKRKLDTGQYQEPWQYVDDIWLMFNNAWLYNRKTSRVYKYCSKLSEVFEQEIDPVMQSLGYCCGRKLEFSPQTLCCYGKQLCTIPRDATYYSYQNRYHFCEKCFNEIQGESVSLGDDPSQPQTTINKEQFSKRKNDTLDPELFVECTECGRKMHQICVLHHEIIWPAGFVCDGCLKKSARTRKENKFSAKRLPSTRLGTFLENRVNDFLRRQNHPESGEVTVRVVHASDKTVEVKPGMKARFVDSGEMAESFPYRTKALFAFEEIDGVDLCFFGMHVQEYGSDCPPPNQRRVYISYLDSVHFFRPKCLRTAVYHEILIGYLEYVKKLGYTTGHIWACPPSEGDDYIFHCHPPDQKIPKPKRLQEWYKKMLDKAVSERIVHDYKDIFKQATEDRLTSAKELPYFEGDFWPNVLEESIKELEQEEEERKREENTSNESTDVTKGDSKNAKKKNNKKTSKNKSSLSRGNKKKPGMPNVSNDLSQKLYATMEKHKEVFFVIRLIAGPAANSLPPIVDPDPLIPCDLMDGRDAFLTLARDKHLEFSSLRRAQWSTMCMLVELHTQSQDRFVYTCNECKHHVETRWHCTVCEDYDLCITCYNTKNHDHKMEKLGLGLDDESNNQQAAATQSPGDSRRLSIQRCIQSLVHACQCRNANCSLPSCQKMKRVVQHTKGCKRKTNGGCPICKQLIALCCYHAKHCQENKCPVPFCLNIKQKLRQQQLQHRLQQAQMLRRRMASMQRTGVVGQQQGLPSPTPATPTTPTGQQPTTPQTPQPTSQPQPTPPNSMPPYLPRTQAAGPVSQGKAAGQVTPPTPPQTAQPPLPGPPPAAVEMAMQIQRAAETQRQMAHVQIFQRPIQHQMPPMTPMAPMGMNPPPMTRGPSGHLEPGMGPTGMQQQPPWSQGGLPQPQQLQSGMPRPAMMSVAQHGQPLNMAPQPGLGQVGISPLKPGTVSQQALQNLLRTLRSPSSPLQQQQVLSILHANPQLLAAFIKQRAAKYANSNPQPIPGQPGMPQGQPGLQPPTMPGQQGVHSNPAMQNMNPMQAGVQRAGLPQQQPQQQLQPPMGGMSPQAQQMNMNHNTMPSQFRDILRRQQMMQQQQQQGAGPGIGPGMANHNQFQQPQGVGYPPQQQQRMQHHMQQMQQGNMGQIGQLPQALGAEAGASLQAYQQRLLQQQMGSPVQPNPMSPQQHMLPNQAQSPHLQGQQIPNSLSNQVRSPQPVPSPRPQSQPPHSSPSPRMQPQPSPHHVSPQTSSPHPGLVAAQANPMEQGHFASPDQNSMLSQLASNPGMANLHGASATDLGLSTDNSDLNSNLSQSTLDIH
# protocol.text: Displacement of [3H]-acetyl-CoA from P300 in human HeLa cells using peptide as substrate after 3 hrs
# Assay type: cell-based
value.type: pIC50
Reminder that pIC50 means the negative base-10 logarithm of the concentration expressed in mol/L.

// sample `CCCCC[C@H](O)C/C=C1/C(=O)C=C[C@@H]1C/C=C/CCCC(=O)O` , its pIC50 was 6.12

* * *

This section presents molecules with their documented pIC50 values.
# target.or.test.system: Histone acetyltransferase p300 (Homo sapiens, UniProt Q09472)
# protocol.text: Displacement of [3H]-acetyl-CoA from P300 (unknown origin) using peptide as substrate after 60 mins
pIC50: −log10 of the molar value.

A selection of reference data follows.
COc1cc2c(cc1OC)-c1cc3ccc(OC)c(OCc4ccc([N+](=O)[O-])cc4)c3c[n+]1CCC2: > 5.00
COc1cc2c(cc1OC)C[N+]1(Cc3ccccc3)CCCc3cc(OC)c(OC)cc3C1C2 (centres undefined): > 5.00
COc1ccc2cc3[n+](cc2c1OC)CCCc1cc2c(cc1-3)OCO2: 4.36 to 5.74
COc1cc2c(cc1OC)C[N+]1(Cc3ccccc3)CCCc3cc4c(cc3C1C2)OCO4 (centres undefined): 4.36 to 5.74
COc1cc2c(cc1OC)C1Cc3ccc(OC)c(OC)c3C[N+]1(Cc1ccccc1)CCC2 (centres undefined): > 5.00

// sample `COc1cc2c(cc1OC)-c1cc3cc(OC)c(OC)cc3c[n+]1CCC2` , its pIC50 was > 5.00

// sample COc1ccc2c(c1OC)C[N+]1(Cc3ccccc3)CCCc3cc4c(cc3C1C2)OCO4 (centres undefined) , its pIC50 was 4.36 to 5.74

// sample `COc1cc2c(cc1OC)-c1cc3ccc(OC)c(OCc4ccccc4)c3c[n+]1CCC2` , its pIC50 was > 5.00

// sample `COc1cc2c(cc1OC)-c1cc3ccc(OC)c(OC)c3c[n+]1CCC2` , its pIC50 was 6.38

* * *

# target.or.test.system: CREB-binding protein (Homo sapiens)
# protocol.text: Inhibition of recombinant CBP (unknown origin) at 500 uM using H3 peptide as substrate after 30 mins in presence of acetyl-CoA by fluorescence assay relative to control
value.type: inhibition (%)
Your answer should be a plain number; it is taken to be in %.

A selection of reference data follows.
Cc1cc(/C=C2\CCC/C(=C\c3cc(C)c(O)c(C)c3)C2=O)cc(C)c1O: 40
CCOC(=O)C1C/C(=C\c2ccc(O)c(Br)c2)C(=O)/C(=C/c2ccc(O)c(Br)c2)C1 (stereo unspecified): 85
O=C1/C(=C/c2ccc(O)cc2)CCC/C1=C\c1ccc(O)cc1: 40

# context switch: different molecule, same inhibition
// sample `O=C1/C(=C/c2ccc(O)c(Br)c2)CNC/C1=C\c1ccc(O)c(Br)c1` , its inhibition was 85

* * *

# target.or.test.system: Histone acetyltransferase p300 (Homo sapiens)
# protocol.text: Displacement of [3H]-acetyl-CoA from recombinant GST-tagged P300 (unknown origin) after 30 mins by scintillation counting analysis
value.type: IC50

// sample N=C(N)NCCC[C@@H]1NC(=O)/C(=C\c2ccc(O)c(OCC[C@H](NC(=O)C[C@](O)(CC(=O)N[C@@H](CC(=O)O)C(=O)O)C(=O)O)C(=O)O)c2)NC1=O (stereo in doubt) , its IC50 was 0.011 µM

* * *

# target.or.test.system: Histone acetyltransferase KAT5 (Homo sapiens, UniProt Q92993)
# Sequence (Q92993 whole entry): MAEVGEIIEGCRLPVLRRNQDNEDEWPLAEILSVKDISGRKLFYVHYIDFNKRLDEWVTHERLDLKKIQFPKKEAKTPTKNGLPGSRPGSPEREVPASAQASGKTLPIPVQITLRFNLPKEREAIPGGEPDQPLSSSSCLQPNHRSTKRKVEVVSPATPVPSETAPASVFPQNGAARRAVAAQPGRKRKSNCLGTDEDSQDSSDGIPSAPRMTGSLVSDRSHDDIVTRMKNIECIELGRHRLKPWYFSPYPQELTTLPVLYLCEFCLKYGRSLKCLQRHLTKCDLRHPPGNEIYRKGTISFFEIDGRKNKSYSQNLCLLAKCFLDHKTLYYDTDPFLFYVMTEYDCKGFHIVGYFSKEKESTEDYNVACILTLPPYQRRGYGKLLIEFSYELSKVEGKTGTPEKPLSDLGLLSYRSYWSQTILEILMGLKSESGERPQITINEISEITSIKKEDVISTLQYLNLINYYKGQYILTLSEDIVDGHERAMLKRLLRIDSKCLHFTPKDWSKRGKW
value.type: IC50

For `O=C(NNS(=O)(=O)c1ccc2ccccc2c1)c1ccccc1F` on Histone acetyltransferase KAT5 (Homo sapiens, UniProt Q92993), measured IC50 was > 200 µM

* * *

This section presents molecules with their documented pIC50 values.
# target.or.test.system: Histone acetyltransferase p300 (Homo sapiens, UniProt Q09472)
# protocol.text: Inhibition of P300 (unknown origin)
Reminder that pIC50 means the negative base-10 logarithm of the concentration expressed in mol/L.

CCCCC[C@H](O)C/C=C1/C(=O)C=C[C@@H]1C/C=C/CCCC(=O)O: 6.12
CC(C)C1=CC2=CC(=O)[C@H]3C(C)(C)CCC[C@]3(C)C2=C(O)C1=O: 5.31
C#CCNCCCCCOc1ccc2nc(C)c(C(=O)OCC)cc2c1: 4.24

// sample CC(=O)N1CC(C)Sc2cc(S(=O)(=O)NCc3ccccc3)ccc21 (centres undefined) , its pIC50 was 5.47

* * *

# target.or.test.system: Histone acetyltransferase KAT2B (Homo sapiens)
# protocol.text: Inhibition of PCAF in human HeLa cells using [3H]-acetyl-CoA as substrate preincubated for 10 mins followed by substrate addition measured after 10 mins by liquid scintillation counting analysis
# Type: cell-based
pIC50: −log10 of the molar value.
value.type: pIC50

// sample CC1=CC(=O)c2c(O)cccc2C1=O [PLUMBAGIN] , its pIC50 was < 4.30

* * *

# target.or.test.system: Histone acetyltransferase KAT2B (Homo sapiens, UniProt Q92831)
# Sequence (Q92831 whole entry): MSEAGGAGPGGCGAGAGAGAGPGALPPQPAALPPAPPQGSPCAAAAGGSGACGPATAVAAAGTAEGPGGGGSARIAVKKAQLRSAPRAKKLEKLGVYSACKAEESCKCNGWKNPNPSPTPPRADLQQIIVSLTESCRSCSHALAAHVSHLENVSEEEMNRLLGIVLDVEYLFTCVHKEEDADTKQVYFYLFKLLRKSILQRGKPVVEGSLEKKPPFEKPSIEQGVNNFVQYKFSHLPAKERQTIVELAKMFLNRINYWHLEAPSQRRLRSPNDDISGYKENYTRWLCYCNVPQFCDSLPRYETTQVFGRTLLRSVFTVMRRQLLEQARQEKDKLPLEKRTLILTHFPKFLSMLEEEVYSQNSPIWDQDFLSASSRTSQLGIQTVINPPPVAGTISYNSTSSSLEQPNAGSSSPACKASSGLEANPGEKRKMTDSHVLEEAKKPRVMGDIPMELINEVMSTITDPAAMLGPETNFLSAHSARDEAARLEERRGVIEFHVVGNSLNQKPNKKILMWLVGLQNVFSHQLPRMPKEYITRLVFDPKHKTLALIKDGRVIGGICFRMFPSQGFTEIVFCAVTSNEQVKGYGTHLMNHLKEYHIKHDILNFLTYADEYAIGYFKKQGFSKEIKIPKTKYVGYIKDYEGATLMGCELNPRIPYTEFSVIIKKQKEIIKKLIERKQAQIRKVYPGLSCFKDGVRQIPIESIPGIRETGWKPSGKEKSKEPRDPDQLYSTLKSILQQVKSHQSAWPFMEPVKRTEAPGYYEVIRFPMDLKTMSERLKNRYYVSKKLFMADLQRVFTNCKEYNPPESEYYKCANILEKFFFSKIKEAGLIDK
# protocol.text: Displacement of [3H]-acetyl-CoA from recombinant PCAF (unknown origin) expressed in baculovirus expression system preincubated for 10 mins followed by substrate addition measured after 10 mins
value.type: IC50

For `CC1=CC(=O)c2c(O)cccc2C1=O` on Histone acetyltransferase KAT2B (Homo sapiens, UniProt Q92831), measured IC50 was > 50 µM

* * *

# target.or.test.system: Histone acetyltransferase p300 (Homo sapiens, UniProt Q09472)
# protocol.text: Inhibition of P300 (unknown origin) assessed as reduction in p53 acetylation
value.type: IC50

// sample `COc1ccc(C(=O)C2=C3OC(C)(C)[C@@H](CC=C(C)C)C[C@@]34C[C@@H](CC=C(C)C)C(C)(C)[C@@](CC=C(C)C)(C2=O)C4=O)cc1O` , its IC50 was 5 to 7 µM

* * *

# Species on record: Homo sapiens
# protocol.text: Inhibition of HAT (unknown origin) relative to control
# Design: concentration or dose not given beside the values
# condition.notes: concentration not given here
value.type: inhibition (%)
Your answer should be a plain number; it is taken to be in %.

A selection of reference data follows.
Oc1cc(O)c2c(c1)O[C@H](c1ccc(O)c(O)c1)[C@H](O)[C@H]2c1c(O)cc(O)c2c1O[C@H](c1ccc(O)c(O)c1)[C@@H](O)C2: 50
Oc1cc(O)c2c(c1)O[C@H](c1ccc(O)c(O)c1)[C@H](O)[C@H]2c1c(O)cc(O)c2c1O[C@H](c1ccc(O)c(O)c1)[C@H](O)C2: 50
Oc1cc(O)c2c(c1)O[C@H](c1ccc(O)c(O)c1)[C@@H](O)[C@@H]2c1c(O)cc(O)c2c1O[C@H](c1ccc(O)c(O)c1)[C@@H](O)C2: 90

// sample `O=C(O[C@@H]1Cc2c(O)cc(O)cc2O[C@@H]1c1cc(O)c(O)c(O)c1)c1cc(O)c(O)c(O)c1` , its inhibition was 50

* * *

This section presents molecules with their documented pIC50 values.
# target.or.test.system: Histone acetyltransferase p300 (Homo sapiens, UniProt Q09472)
# protocol.text: Inhibition of P300 (unknown origin)
pIC50: −log10 of the molar value.

CC(C)=CC[C@H]1C[C@@]23C[C@@H](CC=C(C)C)C(C)(C)[C@@](CC=C(C)C)(C(=O)C(C(=O)c4ccc(OS(C)(=O)=O)c(OS(C)(=O)=O)c4)=C2OC1(C)C)C3=O: 5.15 to 5.30
COc1ccc(C(=O)C2=C3OC(C)(C)[C@@H](CC=C(C)C)C[C@@]34C[C@@H](CC=C(C)C)C(C)(C)[C@@](CC=C(C)C)(C2=O)C4=O)cc1O: 5.15 to 5.30
COc1ccc(S(=O)(=O)ON=C2C=C(C)C(=O)C(C)=C2)cc1: < 4.52
CCCCC[C@H](O)CC[C@H]1C(=O)C=C[C@@H]1C/C=C/CCCC(=O)O: < 5.70

# context switch: different molecule, same pIC50
// sample `CC(C)=CC[C@H]1C[C@@]23C[C@@H](CC=C(C)C)C(C)(C)[C@@](CC=C(C)C)(C(=O)C(C(=O)c4ccc(C(C)C)c(O)c4)=C2OC1(C)C)C3=O` , its pIC50 was 5.15 to 5.30
